# experiment-summary: Human HepG2 cell viability assay in 384 well format
# Format: toxicity, cell-based
# Parameters: dose 125 nL, time 70.5 hour; concentration not given beside the values
# recorded-conditions: HepG2 cells, read-out: Inhibition
measured-quantity: cytotoxicity at 70.5 h (%)
Give just the number in %; leave the unit off.

// solved cases for cytotoxicity at 70.5 h follow
compound=Cc1noc(-c2ccc(N3CCC[C@H]3CO)nc2)n1 value=-0.652
compound=Cc1c(C(=O)NS(=O)(=O)c2ccc(F)cc2)cnn1CC(C)C value=20.5
compound="CN(C)Cc1cnc(C2CCN(C(=O)c3cc(F)cc(F)c3)C2)[nH]1 (centres undefined)" value=-2.53
compound=CCn1cc(CN2CCN(Cc3cccc(OC)c3)C(=O)C2)cc1C#N value=-1.17
compound="CC(=O)N1CCOC2(CCCN(C(=O)c3ccc(Cl)cc3)C2)C1 (centres undefined)" value=-15.6
compound=CCc1nnc2n1CCN(CC(=O)N(CC)C1=CCCCC1)C2 value=14.1
compound="CC(C(=O)NCc1ccnc(N2CCCCCC2)c1)n1cccn1 (centres undefined)" value=17.8
compound=Cc1nnc(NC(=O)NCc2ccc(N3CCC(C)CC3)nc2)s1 value=-8.92
compound=COc1cccc(CNc2cc(C)nc(-c3ccncc3)n2)c1O value=-7.57
compound=CC(C)(C#N)CCCS(=O)(=O)c1nccn1-c1cccc(F)c1 value=-10.9

Proceeding to the next compound to report its cytotoxicity at 70.5 h.
Problem: Look up and state reported cytotoxicity at 70.5 h for "CN(C)c1ccc(C(=O)N2C[C@@H](CN3CCCCC3)[C@@H](CO)C2)cc1"
Result: -4.9

====

# experiment-summary: Human HepG2 cell viability assay in 384 well format
# Format: toxicity, cell-based
# Design: dose 125 nL, time 70.5 hour; concentration not given beside the values
# recorded-conditions: HepG2 cells, read-out: Inhibition
measured-quantity: cytotoxicity at 70.5 h (%)
I only need the number, in %, no unit after it.

The cases that follow already have their cytotoxicity at 70.5 h on record.
compound="N#Cc1cc(S(N)(=O)=O)ccc1NC1CCc2c(F)cccc21 (stereo unspecified)" value=-10.4
compound=OC[C@H]1CN2CCN(c3ccccn3)C[C@@H]2[C@@H]1c1ccccc1 value=-5.54

Problem: // fetch cytotoxicity at 70.5 h given entry CC(C)(C)C(=O)NC(c1nccs1)C1CCN(CC2CCCCC2)CC1 (stereo unspecified)
Result: 33.7

====

# experiment-summary: Human HepG2 cell viability assay in 384 well format
# Assay type: toxicity, cell-based
# Parameters: dose 125 nL, time 70.5 hour; concentration not given beside the values
# recorded-conditions: HepG2 cells, read-out: Inhibition
measured-quantity: cytotoxicity at 70.5 h (%)
Entry rule: numbers only, all in %.

Problem: Look up and state reported cytotoxicity at 70.5 h for Cn1ncc2c1NC(=O)CC2c1ccc(F)cc1 (stereo not drawn)
Result: 1.96

Problem: Using the record for COCCN1CCCC(c2ccnc3c(C(N)=O)cnn23)C1 (stereo not drawn) , state its measured cytotoxicity at 70.5 h.
Result: 3.17

Problem: Supply recorded cytotoxicity at 70.5 h for "CC1CCN(C(=O)c2cnn3c(-c4ccco4)ccnc23)CC1" here.
Result: -8.7

Problem: Consider the compound CC(NS(C)(=O)=O)c1nc(-c2ccc(Br)cc2)no1 (stereo not drawn) and give its recorded cytotoxicity at 70.5 h.
Result: -5.32

Problem: Fill in reported cytotoxicity at 70.5 h for this entry: "CN(CCC(F)(F)F)c1nc2ccccc2c(=O)[nH]1"
Result: 0.426

Problem: Identify measured cytotoxicity at 70.5 h corresponding to "CN(Cc1ccc2c(c1)OCO2)C(=O)NCCc1cnn(C)c1"
Result: -3.13

Problem: # return recorded cytotoxicity at 70.5 h for input "COc1cc2nc(C)n(CC(=O)O)c(=O)c2cc1OC"
Result: -8.36

Problem: Check the records and state cytotoxicity at 70.5 h for "COc1ccc(OC)c(C(=O)N2CCC(Nc3cccnc3)CC2)c1"
Result: -0.864
